Data origin: paper PMC9217908

target: CAT1 (cationic amino acid transporter 1, CAT1/SLC7A1) (Homo sapiens); construct: full-length human transporter stably transfected in HEK cells (HEK-CAT1); net uptake against HEK-VC vector control cells; test: cell-based; design: species or system HEK-CAT1 (HEK293 stably transfected); Inhibition of net CAT1-mediated [3H]-L-homoarginine (1 uM) uptake, 2.5 min, scintillation counting, vector control subtracted; details: HEK293; L-homoarginine 1 uM as substrate; read-out: % Inhibition of L-homoarginine uptake at 20 µM
observed-property: inhibition at 20 µM (%)
Answers are plain numbers, in %.

Solved cases below.
molecule	inhibition at 20 µM, %
CC(=O)Nc1ccc(O)cc1	8.1
C#C[C@]1(O)CC[C@H]2[C@@H]3CCC4=CC(=O)CC[C@@H]4[C@H]3CC[C@@]21C	23.5
Cc1ccc(-c2ncc(Cl)cc2-c2ccc(S(C)(=O)=O)cc2)cn1	-5.4
CO/N=C(\C(=O)N[C@@H]1C(=O)N2C(C(=O)O)=C(COC(N)=O)CS[C@H]12)c1ccco1	16.8
CCOC(=O)C1=C(COCCN)NC(C)=C(C(=O)OC)C1c1ccccc1Cl (stereo not drawn)	-9.3

Value sought for every listed molecule: inhibition at 20 µM.
1. NC12CC3CC(CC(C3)C1)C2
2. CC(CN(C)C)CN1c2ccccc2CCc2ccccc21 (stereo not drawn)
3. C[C@]12CC[C@@H]3c4ccc(O)cc4CC[C@H]3[C@@H]1CC[C@@H]2O
4. COc1cc(Cc2cnc(N)nc2N)cc(OC)c1OC
5. Nc1nc(N)c2nc(-c3ccccc3)c(N)nc2n1

Result:
1: 11.9; 2: 1.8; 3: -0.1; 4: -17; 5: 10.7

Okay, here is my list. What is inhibition at 20 µM for each of these?
1. O[C@@H](CNC[C@H](O)[C@H]1CCc2cc(F)ccc2O1)[C@@H]1CCc2cc(F)ccc2O1 (racemic)
2. C[C@]12CCC(=O)C=C1CC[C@H]1[C@@H]3CC[C@](O)(C(=O)CO)[C@@]3(C)C[C@H](O)[C@@]12F
3. CCOC(=O)C1=C(C)NC(C)=C(C(=O)OC)C1c1cccc(Cl)c1Cl (stereo not drawn)
4. CC#C[C@]1(O)CC[C@H]2[C@@H]3CCC4=CC(=O)CCC4=C3[C@@H](c3ccc(N(C)C)cc3)C[C@@]21C
5. CCN(CC)CCCC(C)Nc1ccnc2cc(Cl)ccc12 (stereo not drawn)
6. CCOC(=O)C1=C(C)NC(C)=C(C(=O)OC)C1c1cccc([N+](=O)[O-])c1 (stereo not drawn)
7. Nc1nc(NC2CC2)c2ncn([C@H]3C=C[C@@H](CO)C3)c2n1
8. CCCc1nc(C(C)(C)O)c(C(=O)O)n1Cc1ccc(-c2ccccc2-c2nnn[nH]2)cc1

Result:
1. -4.6
2. -27
3. -9.6
4. 8.5
5. -35.1
6. 3.4
7. -3.1
8. 3

Respectfully, I request inhibition at 20 µM for each entry included below.
1. COC(=O)[C@H](c1ccccc1Cl)N1CCc2sccc2C1
2. CNC(=C[N+](=O)[O-])NCCSCc1ccc(CN(C)C)o1
3. C[C@H]1O[C@@H](O[C@H]2[C@@H](O)C[C@H](O[C@H]3[C@@H](O)C[C@H](O[C@H]4CC[C@@]5(C)[C@H](CC[C@@H]6[C@@H]5C[C@@H](O)[C@]5(C)[C@@H](C7=CC(=O)OC7)CC[C@]65O)C4)O[C@@H]3C)O[C@@H]2C)C[C@H](O)[C@@H]1O
4. C=C[C@H]1CN2CC[C@H]1C[C@@H]2[C@@H](O)c1ccnc2ccc(OC)cc12
5. CC(C)Cc1ccc(C(C)C(=O)O)cc1 (stereo not drawn)
6. CCCC(CCC)C(=O)O
7. CCN(CC)CCNC(=O)c1cc(Cl)c(N)cc1OC [Metoclopramide]
8. Clc1ccccc1CN1CCc2sccc2C1

Result:
[1.9, -4, -4.8, 4.4, -7.5, 10.2, -6.3, -4.3]

Could you report inhibition at 20 µM for every entry in the following list?
1. CN(Cc1cnc2nc(N)nc(N)c2n1)c1ccc(C(=O)N[C@@H](CCC(=O)O)C(=O)O)cc1 [Methotrexate]
2. C[C@]12C=CC(=O)C=C1CC[C@@H]1[C@@H]2[C@@H](O)C[C@@]2(C)[C@H]1CC[C@]2(O)C(=O)CO
3. Nc1ccc(S(=O)(=O)c2ccc(N)cc2)cc1

Result:
1: 19.5; 2: -11.1; 3: -9.8

Please report inhibition at 20 µM for every entry that follows.
1. C[C@]12C=CC(=O)C=C1CC[C@@H]1[C@@H]2C(=O)C[C@@]2(C)[C@H]1CC[C@]2(O)C(=O)CO
2. NCCCC[C@H](N[C@@H](CCc1ccccc1)C(=O)O)C(=O)N1CCC[C@H]1C(=O)O
3. CCOC(=O)[C@H](CCc1ccccc1)N[C@H]1CCc2ccccc2N(CC(=O)O)C1=O

Result:
1: 12.5; 2: 6.4; 3: 1.1

Request: Requested read-out: inhibition at 20 µM. Entry: "C[C@H]1c2cccc(O)c2C(=O)C2=C(O)[C@]3(O)C(=O)C(C(N)=O)=C(O)[C@@H](N(C)C)[C@@H]3[C@@H](O)[C@@H]21"
Result: 9.7

====

Can you tell me inhibition at 200 µM for the items I'm about to list?
biological target: CAT1 (cationic amino acid transporter 1, CAT1/SLC7A1) (Homo sapiens, UniProt P30825); construct: full-length human transporter stably transfected in HEK cells (HEK-CAT1); net uptake against HEK-VC vector control cells; assay: cell-based; design: species or system HEK-CAT1 (HEK293 stably transfected); Inhibition of net CAT1-mediated [3H]-L-homoarginine (1 uM) uptake, 2.5 min, scintillation counting, vector control subtracted; details: HEK293; L-homoarginine 1 uM as substrate; read-out: % Inhibition of L-homoarginine uptake at 200 µM
Sequence (P30825 whole entry): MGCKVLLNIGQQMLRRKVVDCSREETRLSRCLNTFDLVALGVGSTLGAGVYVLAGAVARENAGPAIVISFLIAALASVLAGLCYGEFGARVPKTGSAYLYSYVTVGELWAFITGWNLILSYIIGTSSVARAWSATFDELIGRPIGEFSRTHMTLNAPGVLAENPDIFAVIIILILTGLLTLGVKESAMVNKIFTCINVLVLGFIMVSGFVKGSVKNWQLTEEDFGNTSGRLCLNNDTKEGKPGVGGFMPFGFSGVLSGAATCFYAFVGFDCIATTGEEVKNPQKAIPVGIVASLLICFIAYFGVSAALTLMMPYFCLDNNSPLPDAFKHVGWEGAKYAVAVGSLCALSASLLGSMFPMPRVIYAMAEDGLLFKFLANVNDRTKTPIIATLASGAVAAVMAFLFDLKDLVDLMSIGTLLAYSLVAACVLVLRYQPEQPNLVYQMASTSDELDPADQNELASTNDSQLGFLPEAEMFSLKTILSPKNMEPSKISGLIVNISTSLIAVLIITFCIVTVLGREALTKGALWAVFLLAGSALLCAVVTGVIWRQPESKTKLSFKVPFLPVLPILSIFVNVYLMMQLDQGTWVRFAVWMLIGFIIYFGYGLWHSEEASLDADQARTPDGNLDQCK
One number for each entry, in %.

Example cases with answers are listed next.
> print(dat)
                                   compound     observed.property  measured
1                 Cc1ncc([N+](=O)[O-])n1CCO  inhibition at 200 µM       0.8
2             CN(C)CCCN1c2ccccc2CCc2ccccc21  inhibition at 200 µM        15
3  COc1cc2nc(N3CCN(C(=O)c4ccco4)CC3)nc(N)c2cc1OC  inhibition at 200 µM       9.7
4  CCOC(=O)C1=C(COCCN)NC(C)=C(C(=O)OC)C1c1ccccc1Cl (stereo not shown)  inhibition at 200 µM      -3.9
5           COc1cc(Cc2cnc(N)nc2N)cc(OC)c1OC  inhibition at 200 µM     -13.8

For every item below, please supply its inhibition at 200 µM.
1. CN(C)C(=N)NC(=N)N
2. CCc1nc(N)nc(N)c1-c1ccc(Cl)cc1
3. O=C(O)CCCc1ccc(N(CCCl)CCCl)cc1

Result:
-18.8
31.6
-41.6

Batch: inhibition at 200 µM for all items listed.
1. CC(CN1c2ccccc2Sc2ccccc21)N(C)C (stereo not shown)
2. Nc1ccn([C@@H]2CS[C@H](CO)O2)c(=O)n1

Result:
14
-3.1

====

Give inhibition at 20 µM for every item shown.
biological target: CAT1 (cationic amino acid transporter 1, CAT1/SLC7A1) (Homo sapiens, UniProt P30825); construct: full-length human transporter stably transfected in HEK cells (HEK-CAT1); net uptake against HEK-VC vector control cells; assay: cell-based; design: species or system HEK-CAT1 (HEK293 stably transfected); Inhibition of net CAT1-mediated [3H]-L-homoarginine (1 uM) uptake, 2.5 min, scintillation counting, vector control subtracted; details: HEK293; L-homoarginine 1 uM as substrate; read-out: % Inhibition of L-homoarginine uptake at 20 µM
One number for each entry, in %.

See these solved cases before continuing.
> print(dat)
                                   compound  measured
1  CNCCCN1c2ccccc2CCc2ccccc21 [Desipramine]     -10.3
2  Cc1nccn1CC1CCc2c(c3ccccc3n2C)C1=O (centres unmarked) [Ondansetron]      -0.5
3  COc1ccc(OC)c(C(O)C(C)N)c1 (centres unmarked) [Methoxamine]       0.7
4                    c1c[nH]cn1 [Imidazole]      -3.2
5  Cc1ncc([N+](=O)[O-])n1CCO [Metronidazole]      -4.7
6  OCCN1CCN(CCCN2c3ccccc3C=Cc3ccccc32)CC1 [Opipramol]     -16.8
7  COCCc1ccc(OCC(O)CNC(C)C)cc1 (centres unmarked) [Metoprolol]     -21.4
8             CN(C)C(=N)NC(=N)N [Metformin]     -20.4

Hello, I would appreciate it if you could give inhibition at 20 µM for each entry below.
1. CNCC[C@H](Oc1cccc2ccccc12)c1cccs1 [Duloxetine]
2. CCc1nc(N)nc(N)c1-c1ccc(Cl)cc1 [Pyrimethamine]
3. COc1ccc(Cl)cc1C(=O)NCCc1ccc(S(=O)(=O)NC(=O)NC2CCCCC2)cc1 [Glibenclamide]

Result:
7.6
-25.8
12.4
